Quick reference for Ratio among some compounds
target: ATP-dependent translocase ABCB1 (Homo sapiens, UniProt P08183); experiment: Inhibition of human ABCB1 expressed in mouse L5178 cells assessed as rhodamine-123 accumulation by measuring fluorescence activity ratio at 20 uM pretreated for 10 mins followed by rhodamine-123 addition measured after 20 mins by flow cytometric analysis; format: cell-based
Sequence (P08183 whole entry): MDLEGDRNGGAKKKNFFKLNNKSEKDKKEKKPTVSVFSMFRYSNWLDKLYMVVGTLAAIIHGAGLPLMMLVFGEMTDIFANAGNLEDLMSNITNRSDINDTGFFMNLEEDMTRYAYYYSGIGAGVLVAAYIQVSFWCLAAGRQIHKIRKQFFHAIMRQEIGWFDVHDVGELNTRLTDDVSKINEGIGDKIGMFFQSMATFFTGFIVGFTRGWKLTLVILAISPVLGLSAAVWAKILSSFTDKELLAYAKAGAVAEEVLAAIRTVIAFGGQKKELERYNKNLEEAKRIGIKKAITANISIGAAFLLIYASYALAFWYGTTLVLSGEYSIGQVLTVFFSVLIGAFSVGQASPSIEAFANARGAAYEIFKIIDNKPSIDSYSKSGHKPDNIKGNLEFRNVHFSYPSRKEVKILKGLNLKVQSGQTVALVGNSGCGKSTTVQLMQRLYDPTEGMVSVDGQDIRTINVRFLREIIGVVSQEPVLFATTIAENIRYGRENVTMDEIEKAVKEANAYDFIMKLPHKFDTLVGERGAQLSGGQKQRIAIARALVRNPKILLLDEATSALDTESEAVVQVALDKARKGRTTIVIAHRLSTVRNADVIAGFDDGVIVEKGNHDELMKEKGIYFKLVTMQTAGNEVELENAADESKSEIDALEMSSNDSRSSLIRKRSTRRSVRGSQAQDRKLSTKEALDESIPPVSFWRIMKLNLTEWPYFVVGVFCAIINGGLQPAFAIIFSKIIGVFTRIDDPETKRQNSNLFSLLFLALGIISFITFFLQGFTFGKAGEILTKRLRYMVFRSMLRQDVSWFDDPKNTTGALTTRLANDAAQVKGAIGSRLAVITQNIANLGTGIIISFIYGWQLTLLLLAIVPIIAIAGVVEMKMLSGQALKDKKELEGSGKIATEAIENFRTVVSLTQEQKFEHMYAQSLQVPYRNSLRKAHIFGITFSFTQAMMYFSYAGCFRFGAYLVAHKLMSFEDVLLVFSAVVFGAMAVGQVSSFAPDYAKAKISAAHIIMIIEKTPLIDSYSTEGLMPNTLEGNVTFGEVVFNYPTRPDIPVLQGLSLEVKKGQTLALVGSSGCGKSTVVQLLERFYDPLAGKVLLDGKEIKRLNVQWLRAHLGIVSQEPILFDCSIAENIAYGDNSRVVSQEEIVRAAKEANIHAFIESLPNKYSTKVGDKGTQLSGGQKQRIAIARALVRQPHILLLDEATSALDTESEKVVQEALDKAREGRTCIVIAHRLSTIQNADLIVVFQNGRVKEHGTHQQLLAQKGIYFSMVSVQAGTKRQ
Number, no unit, nothing else.

Recorded Ratio, per entry:
>  <structure>
CC(C)(O)CC[C@@H]1OC(C)(C)O[C@]1(C)[C@H]1CC=C2C3=CC(=O)[C@@H]4C[C@H]5OC(C)(C)O[C@H]5C[C@]4(C)[C@H]3CC[C@@]21C

>  <target_entity>
ATP-dependent translocase ABCB1 (Homo sapiens, UniProt P08183)

>  <assay_readout>
Ratio

>  <quantitative_result>
57.36

$$$$
>  <structure>
CC(C)(F)CC[C@@H]1OC(C)(C)O[C@]1(C)[C@H]1CC[C@@]2(F)C3=CC(=O)[C@@H]4C[C@H]5OC(C)(C)O[C@H]5C[C@]4(C)[C@H]3CC[C@]12C

>  <target_entity>
ATP-dependent translocase ABCB1 (Homo sapiens, UniProt P08183)

>  <assay_readout>
Ratio

>  <quantitative_result>
89.78

$$$$
>  <structure>
CC(C)(F)CC[C@@H]1OC(C)(C)O[C@]1(C)[C@H]1CC=C2C3=CC(=O)[C@@H]4C[C@H]5OC(C)(C)O[C@H]5C[C@]4(C)[C@H]3CC[C@@]21C

>  <target_entity>
ATP-dependent translocase ABCB1 (Homo sapiens, UniProt P08183)

>  <assay_readout>
Ratio

>  <quantitative_result>
109.37

$$$$
>  <structure>
CC(C)(F)CC[C@@H]1OC(C)(C)O[C@]1(C)[C@H]1CC[C@@]2(O)C3=CC(=O)[C@@H]4C[C@H]5OC(C)(C)O[C@H]5C[C@]4(C)[C@H]3CC[C@]12C

>  <target_entity>
ATP-dependent translocase ABCB1 (Homo sapiens, UniProt P08183)

>  <assay_readout>
Ratio

>  <quantitative_result>
38.62

$$$$

We next turn to a different compound, shown below.
Ratio for CC(C)(O)CC[C@@H]1OC(C)(C)O[C@]1(C)[C@H]1CC[C@@]2(O)C3=CC(=O)[C@@H]4C[C@H]5OC(C)(C)O[C@H]5C[C@]4(C)[C@H]3CC[C@]12C is 11.28

* * *

molecular target: ATP-dependent translocase ABCB1 (Homo sapiens, UniProt P08183); assay: Inhibition of human ABCB1 expressed in mouse L5178 cells assessed as potentiation of doxorubicin-induced cytotoxicity by measuring combination index at ED75 in presence of 81.5:1 ratio of doxorubicin to test compound after 48 hrs by MTT assay; type: cell-based
# note: exactly 0.3 is not below, so it is condition not met; use condition met for CI strictly under it

Here's what some known entries look like.
>  <structure>
CC(C)(F)CC[C@@H]1OC(C)(C)O[C@]1(C)[C@H]1CC=C2C3=CC(=O)[C@@H]4C[C@H]5OC(C)(C)O[C@H]5C[C@]4(C)[C@H]3CC[C@@]21C

>  <label_class>
condition not met

$$$$
>  <structure>
CC(C)(O)CC[C@@H]1OC(C)(C)O[C@]1(C)[C@H]1CC[C@@]2(O)C3=CC(=O)[C@@H]4C[C@H]5OC(C)(C)O[C@H]5C[C@]4(C)[C@H]3CC[C@]12C

>  <label_class>
condition met

$$$$
>  <structure>
CC(C)(F)CC[C@@H]1OC(C)(C)O[C@]1(C)[C@H]1CC[C@@]2(F)C3=CC(=O)[C@@H]4C[C@H]5OC(C)(C)O[C@H]5C[C@]4(C)[C@H]3CC[C@]12C

>  <label_class>
condition met

$$$$
>  <structure>
CC(C)(O)CC[C@@H]1OC(C)(C)O[C@]1(C)[C@H]1CC=C2C3=CC(=O)[C@@H]4C[C@H]5OC(C)(C)O[C@H]5C[C@]4(C)[C@H]3CC[C@@]21C

>  <label_class>
condition not met

$$$$

With those in mind, consider the next compound.
Input: In plain terms, does CC(C)(F)CC[C@@H]1OC(C)(C)O[C@]1(C)[C@H]1CC[C@@]2(O)C3=CC(=O)[C@@H]4C[C@H]5OC(C)(C)O[C@H]5C[C@]4(C)[C@H]3CC[C@]12C come in under 0.3 for CI?
Output: condition not met

These data points were gathered from ChEMBL document CHEMBL4190180.
